target: ENPP1 on MDA-MB-231 cells (Homo sapiens (Human), UniProt P22413); test: Inhibition of ENPP1 hydrolysis of AMP p-nitrophenyl ester on MDA-MB-231 cells (Assay 2); format: cell-based; details: pNP-AMP 0.25 mM, MDA-MB-231 cells, 37° C. 3 h, KI,app from IC50 via Cheng/Prusoff; read-out: Assay 2 KI, app
Sequence (P22413 whole entry): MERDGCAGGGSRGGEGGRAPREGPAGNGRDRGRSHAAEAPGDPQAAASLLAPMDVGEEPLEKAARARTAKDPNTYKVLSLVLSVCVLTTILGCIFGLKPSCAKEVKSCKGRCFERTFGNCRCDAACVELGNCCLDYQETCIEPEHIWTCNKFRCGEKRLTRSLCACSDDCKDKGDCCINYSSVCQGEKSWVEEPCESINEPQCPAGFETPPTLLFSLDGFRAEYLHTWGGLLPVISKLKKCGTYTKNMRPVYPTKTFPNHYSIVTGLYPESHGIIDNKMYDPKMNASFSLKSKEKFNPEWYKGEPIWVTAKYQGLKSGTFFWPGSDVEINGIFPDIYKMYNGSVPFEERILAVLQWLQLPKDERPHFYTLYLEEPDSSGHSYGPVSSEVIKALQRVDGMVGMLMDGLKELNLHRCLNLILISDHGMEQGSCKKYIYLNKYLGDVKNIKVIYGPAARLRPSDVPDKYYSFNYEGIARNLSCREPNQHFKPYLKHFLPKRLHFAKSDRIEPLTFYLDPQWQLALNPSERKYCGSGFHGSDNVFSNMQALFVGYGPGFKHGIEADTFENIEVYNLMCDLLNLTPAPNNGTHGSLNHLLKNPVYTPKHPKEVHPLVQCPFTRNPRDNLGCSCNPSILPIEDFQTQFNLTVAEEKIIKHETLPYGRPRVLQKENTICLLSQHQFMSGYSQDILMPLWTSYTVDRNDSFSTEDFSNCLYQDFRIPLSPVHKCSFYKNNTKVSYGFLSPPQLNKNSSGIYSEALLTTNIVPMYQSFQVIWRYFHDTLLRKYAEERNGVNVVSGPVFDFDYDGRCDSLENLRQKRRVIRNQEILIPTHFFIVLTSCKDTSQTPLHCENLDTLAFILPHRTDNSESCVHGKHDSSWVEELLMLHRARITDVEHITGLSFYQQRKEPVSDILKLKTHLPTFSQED
pKi: −log10 of the molar value.
assay_metric: pKi

Known pKi results, listed for orientation:
compound	pKi
Cc1nc2ncnn2c(N(C)C)c1Cc1ccc([S@@](=N)(=O)CCC(=O)O)cc1 [Compound 72a]	9.30
Cc1cc2ncnn2c(N2CCCC2)c1Cc1ccc(S(C)(=N)=O)cc1 (stereo not shown) [Compound 75]	7.44

I = Cc1cc2ncnn2c(N(C)C)c1Cc1ccc([S@](C)(=N)=O)cc1 (single isomer, unassigned) [Compound 28a]
II = Cc1nc2ncnn2c(N2CCCC2)c1Cc1ccc(S(N)(=O)=O)cc1 [Compound 9]
**Q:** Name the one with the greater pKi value, either I or II as given. Field: selected label. Fill in the label of the entry you choose.
**A:** I
(I: 9.25, II: 7.49)

---

target: ENPP-1 ECD (Homo sapiens (Human), UniProt P22413); test: Inhibition of ENPP1 hydrolysis of 2′,3′-cGAMP (Assay 1); conditions: read-out: Assay 1 KI values (class); 2,3-cGAMP 24 μM, AMP-Glo luminescence, KI from IC50 via Cheng/Prusoff
pKi: −log10 of the molar value.
assay_metric: pKi

The compound listed as Cc1nc2ncnn2c(N2CCCC2)c1Cc1ccc([S@](C)(=N)=O)cc1 (single isomer, unassigned) shows pKi equal to > 8.52

Memo: Cc1nc2ncnn2c(N(C)C)c1Cc1ccc([S@](C)(=N)=O)cc1 (single isomer, unassigned) [Compound 1a] , reported pKi: 6.52 to 8.52

The reported value for Cc1cc2ncnn2c(N(C)C)c1Cc1ccc([S@](C)(=N)=O)cc1 (single isomer, unassigned) [Compound 28a] in terms of pKi is > 8.52

Data point: Cc1nc2ncnn2c(N2CCCC2)c1Cc1ccc([S@@](C)(=N)=O)cc1 (single isomer, unassigned) ; pKi = 6.52 to 8.52

Data point: Cc1nc2ncnn2c(N2CCCCC2)c1Cc1ccc([S@](C)(=N)=O)cc1 [Compound 16a] ; pKi = > 8.52

Briefly, pKi measured for Cc1nc2ncnn2c(N(C)C)c1Cc1ccc([S@@](C)(=N)=O)cc1 (single isomer, unassigned) [Compound 1b] : > 8.52

pKi for Cc1nc2nccn2c(N(C)C)c1Cc1ccc([S@@](C)(=N)=O)cc1 [Compound 29b] is 6.52 to 8.52

---

biological target: ENPP-1 ECD (Homo sapiens (Human), UniProt P22413); experiment: Inhibition of ENPP1 hydrolysis of 2′,3′-cGAMP (Assay 1); settings: Assay 1 KI values (class), 2,3-cGAMP 24 μM, AMP-Glo luminescence, KI from IC50 via Cheng/Prusoff
Entries and their measured Ki follow.

Record excerpt, results attached:
molecule	assay_metric	recorded_value
Cc1nc2ncnn2c(N(C)C)c1Cc1ccc(S(=N)(=O)CCC(=O)O)cc1 (centres unmarked)	Ki	< 3 nM
Cc1nc2ncnn2c(N(C)C)c1Cc1cccc(NS(N)(=O)=O)c1	Ki	3 to 300 nM
Cc1nc2ncnn2c(-n2cccn2)c1Cc1ccc(S(C)(=N)=O)cc1 (centres unmarked)	Ki	3 to 300 nM
Cc1nc2ncnn2c(N2C3CCCC2CC3)c1Cc1ccc(S(C)(=N)=O)cc1 (centres unmarked)	Ki	3 to 300 nM

The reported Ki of the molecule Cc1nc2ncnn2c(N(C)C)c1Cc1ccc(S(=N)(=O)C2CC2)cc1 (centres unmarked) was < 3 nM

---

molecular target: ENPP1 on MDA-MB-231 cells (Homo sapiens (Human)); assay: Inhibition of ENPP1 hydrolysis of AMP p-nitrophenyl ester on MDA-MB-231 cells (Assay 2); format: cell-based; details: pNP-AMP 0.25 mM, MDA-MB-231 cells, 37° C. 3 h, KI,app from IC50 via Cheng/Prusoff; read-out: Assay 2 KI, app
assay_metric: Ki (nM)

Record excerpt, results attached:
compound	result_units	Ki
CN(C)c1c(Cc2ccc(S(C)(=N)=O)cc2)c(C2CC2)nc2ncnn12 (stereo not shown)	nM	1.11
Cc1nc2ncnn2c(N2CCCC2)c1Cc1ccc([S@](C)(=N)=O)cc1 (single isomer, unassigned)	nM	9.73

a = COc1nc2ncnn2c(N(C)C)c1Cc1ccc([S@@](C)(=N)=O)cc1 [Compound 88a]
b = Cc1nc2ncnn2c(N(C)C)c1Cc1ccc(S(N)(=O)=O)cc1
c = COCCS(=N)(=O)c1ccc(Cc2c(C)nc3ncnn3c2N(C)C)cc1 (stereo not shown)
**Q:** # desc sort on Ki across 3 compounds Sort the labels as requested; that list is your answer.
**A:** b, c, a

---

molecular target: ENPP1 on MDA-MB-231 cells (Homo sapiens (Human), UniProt P22413); experiment: Inhibition of ENPP1 hydrolysis of AMP p-nitrophenyl ester on MDA-MB-231 cells (Assay 2); type: cell-based; conditions: pNP-AMP 0.25 mM, MDA-MB-231 cells, 37° C. 3 h, KI,app from IC50 via Cheng/Prusoff; read-out: Assay 2 KI,app values (class)
pKi: −log10 of the molar value.
Catalogue of molecules with associated pKi

Below: 2 molecules and their reported pKi.
molecule	pKi
Cc1c(Cc2ccc(S(C)(=N)=O)cc2)c(N(C)C)n2ccnc2c1C#N (stereo not drawn) [Compound 80]	> 8.00
Cc1cc2ncnn2c(N(C)C)c1Cc1ccc(S(C)(=N)=O)cc1 (stereo not drawn) [Compound 28]	> 8.00

Looking up Cc1cc2ncnn2c(N(C)C)c1Cc1ccc([S@](C)(=N)=O)cc1 (single isomer, unassigned) [Compound 28a] , I see its pKi listed as > 8.00

---

molecular target: ENPP-1 ECD (Homo sapiens (Human), UniProt P22413); assay: Inhibition of ENPP1 hydrolysis of 2′,3′-cGAMP (Assay 1); conditions: read-out: Assay 1 KI; 2,3-cGAMP 24 μM, AMP-Glo luminescence, KI from IC50 via Cheng/Prusoff
assay_metric: Ki (nM)

molecule	experimental_target	Ki [nM]
Cc1nc2ncnn2c(N2CC3CC2C3)c1Cc1ccc(S(C)(=N)=O)cc1 (stereo not shown)	ENPP-1 ECD (Homo sapiens (Human), UniProt P22413)	9.83
Cc1nc2ncnn2c(N(C)C)c1Cc1ccc([S@](C)(=N)=O)cc1 (single isomer, unassigned) [Compound 49b]	ENPP-1 ECD (Homo sapiens (Human), UniProt P22413)	0.356
Cc1nc2ncnn2c(N(C)C)c1-c1ccc2c(c1)CCN(S(N)(=O)=O)C2	ENPP-1 ECD (Homo sapiens (Human), UniProt P22413)	672
Cc1nc2ncnn2c(N(C)C)c1Cc1ccc(S(=N)(=O)C2CC2)cc1 (stereo not shown)	ENPP-1 ECD (Homo sapiens (Human), UniProt P22413)	0.0363
Cc1nc2ncnn2c(N2CCC2)c1Cc1ccc(S(C)(=N)=O)cc1 (stereo not shown)	ENPP-1 ECD (Homo sapiens (Human), UniProt P22413)	3.12
Cc1nc2ncnn2c(N(C)C)c1Cc1ccc(S(=N)(=O)CCC(=O)O)cc1 (stereo not shown)	ENPP-1 ECD (Homo sapiens (Human), UniProt P22413)	0.0285
Cc1nc2ncnn2c(N2CCCC2)c1Cc1ccc(S(C)(=N)=O)cc1 (stereo not shown)	ENPP-1 ECD (Homo sapiens (Human), UniProt P22413)	0.0718
Cc1nc2ncnn2c(N(C)C)c1Cc1ccc(P(=O)(O)O)cc1	ENPP-1 ECD (Homo sapiens (Human), UniProt P22413)	0.851
Cc1nc2ncnn2c(N(C)C)c1Cc1ccc([S@@](C)(=N)=O)cc1 (single isomer, unassigned) [Compound 49a]	ENPP-1 ECD (Homo sapiens (Human), UniProt P22413)	0.0236
Cc1c(Cc2ccc([S@@](C)(=N)=O)cc2)c(N(C)C)n2ncnc2c1C#N (single isomer, unassigned) [Compound 85a]	ENPP-1 ECD (Homo sapiens (Human), UniProt P22413)	0.00604

I = Cc1nc2ncnn2c(N2CCCC2)c1Cc1ccc(P(=O)(O)O)cc1
II = Cc1nc2ncnn2c(C)c1Cc1ccc(S(C)(=N)=O)cc1 (stereo not shown)
**Q:** API: POST /compare with I and II ; response names the item with higher Ki. Pick one; state its label.
**A:** II
(II: 13.6 nM, I: 0.512 nM)

---

target: ENPP-1 ECD (Homo sapiens (Human)); assay: Inhibition of ENPP1 hydrolysis of 2′,3′-cGAMP (Assay 1); conditions: read-out: Assay 1 KI values (class); 2,3-cGAMP 24 μM, AMP-Glo luminescence, KI from IC50 via Cheng/Prusoff
Reported values of Ki for individual entries

Example compounds with recorded Ki:
compound	Ki
Cc1cc2ncnn2c(N(C)C)c1Cc1ccc([S@@](C)(=N)=O)cc1 (single isomer, unassigned) [Compound 28b]	3 to 300 nM
Cc1nc2ncnn2c(N2CCCCC2)c1Cc1ccc([S@@](C)(=N)=O)cc1 [Compound 16b]	3 to 300 nM
Cc1nc2ncnn2c(N(C)C)c1Cc1ccc([S@@](C)(=N)=O)cc1 (single isomer, unassigned) [Compound 49a]	< 3 nM
CN(C)c1c(Cc2ccc([S@](C)(=N)=O)cc2)c(Cl)nc2ncnn12 [Compound 74b]	3 to 300 nM

response.value for CN(C)c1c(Cc2ccc([S@@](C)(=N)=O)cc2)c(Cl)nc2ncnn12 [Compound 74a] (field: Ki) = < 3 nM

compound Cc1nc2ncnn2c(N(C)C)c1Cc1ccc([S@](C)(=N)=O)cc1 (single isomer, unassigned) [Compound 49b] , Ki observed: < 3 nM

Cc1c(Cc2ccc([S@@](C)(=N)=O)cc2)c(N(C)C)n2ccnc2c1C#N [Compound 80a] has a reported Ki of < 3 nM

Notebook: CS(=N)(=O)c1ccc(Cc2cnc3ncnn3c2N2CCCC2)cc1 (stereo not shown) , Ki read as < 3 nM

# Ki of Cc1nc2nccn2c(N(C)C)c1Cc1ccc([S@](C)(=N)=O)cc1 [Compound 29a] = < 3 nM

Cc1c(Cc2ccc([S@](C)(=N)=O)cc2)c(N(C)C)n2ccnc2c1C#N [Compound 80b] has a reported Ki of 3 to 300 nM
